From: ChEMBL document CHEMBL4725466

PROTOCOL_DESCRIPTION: Half life in CD1 mouse liver microsomes at 1 uM incubated for 60 mins under shaking condition by LC-MS/MS analysis
Format: ADME, Microsome
MEASURED_METRIC: half-life at 1 µM (min)

>>> print(df.to_string())
                               input_smiles  limit_operator  number
0  CC(=O)c1ccc(NC(=O)Nc2ccc(-c3nc(N4CCOCC4)c4ccccc4n3)cc2)cc1               >      60
1  O=C(Nc1ccc(CO)cc1)Nc1ccc(-c2nc(N3CCOCC3)c3ccccc3n2)cc1               >      60
2  N=C(N)NS(=O)(=O)c1ccc(NC(=O)Nc2ccc(-c3nc(N4CCOCC4)c4ccccc4n3)cc2)cc1               >      60
3  O=C(Nc1ccccc1)Nc1ccc(-c2nc(N3CCOCC3)c3ccccc3n2)cc1               >      60
4  N=C(N)NS(=O)(=O)c1ccc(Nc2nc(N3CCOCC3)c3ccccc3n2)cc1               =    44.9
5  CCOC(=O)c1ccc(NC(=O)Nc2ccc(-c3nc(N4CCOCC4)c4ccccc4n3)cc2)cc1               =    30.5
6  O=C(NCCO)Nc1ccc(-c2nc(N3CCOCC3)c3ccccc3n2)cc1               =    53.1
7  O=C(Nc1ccc(-c2nc(N3CCOCC3)c3ccccc3n2)cc1)Nc1ccc(S(=O)(=O)Nc2ccccn2)cc1               =    37.8
8  NS(=O)(=O)c1ccc(NC(=O)Nc2ccc(-c3nc(N4CCOCC4)c4ccccc4n3)cc2)cc1               >      60

----------
Tested on: MDA-MB-468
PROTOCOL_DESCRIPTION: Antiproliferative activity against human MDA-MB-468 cells assessed as cell viability at 10 uM after 48 hrs by celltiter-glo 2D luminescent assay relative to control
Assay type: functional
CONDITION_DESCRIPTION: read-out: Activity
MEASURED_METRIC: viability at 10 µM (%)

In [3]: df
Out[3]:
                               input_smiles     measured_metric  number
0  CS(=O)(=O)Nc1ccc(NC(=O)Nc2ccc(-c3nc(N4CCOCC4)c4ccccc4n3)cc2)cc1  viability at 10 µM      66
1  CNC(=O)Nc1ccc(-c2nc(N3CCOCC3)c3ccccc3n2)cc1  viability at 10 µM      96
2  O=C(Nc1ccc(-c2nc(N3CCOCC3)c3ccccc3n2)cc1)Nc1cncnc1  viability at 10 µM      56
3  CC(=O)Nc1ccc(NC(=O)Nc2ccc(-c3nc(N4CCOCC4)c4ccccc4n3)cc2)cc1  viability at 10 µM      50
4  O=C(Nc1ccc(CO)cc1)Nc1ccc(-c2nc(N3CCOCC3)c3ccccc3n2)cc1  viability at 10 µM      60
5  O=C(NCCO)Nc1ccc(-c2nc(N3CCOCC3)c3ccccc3n2)cc1  viability at 10 µM      65
6  O=C(Nc1ccc(-c2nc(N3CCOCC3)c3ccccc3n2)cc1)Nc1cccc(CO)c1  viability at 10 µM      47
7  NS(=O)(=O)c1ccc(NC(=O)Nc2ccc(-c3nc(N4CCOCC4)c4ccccc4n3)cc2)cc1  viability at 10 µM      33
8  CC(=O)c1ccc(NC(=O)Nc2ccc(-c3nc(N4CCOCC4)c4ccccc4n3)cc2)cc1  viability at 10 µM      42
9  O=C(Nc1ccc(CCO)cc1)Nc1ccc(-c2nc(N3CCOCC3)c3ccccc3n2)cc1  viability at 10 µM      74
